Molecular target: human kinase Mps-1 (Homo sapiens, UniProt P33981)
Construct: N-terminally GST-tagged human full length recombinant Mps-1 kinase
Sequence (P33981 1-857): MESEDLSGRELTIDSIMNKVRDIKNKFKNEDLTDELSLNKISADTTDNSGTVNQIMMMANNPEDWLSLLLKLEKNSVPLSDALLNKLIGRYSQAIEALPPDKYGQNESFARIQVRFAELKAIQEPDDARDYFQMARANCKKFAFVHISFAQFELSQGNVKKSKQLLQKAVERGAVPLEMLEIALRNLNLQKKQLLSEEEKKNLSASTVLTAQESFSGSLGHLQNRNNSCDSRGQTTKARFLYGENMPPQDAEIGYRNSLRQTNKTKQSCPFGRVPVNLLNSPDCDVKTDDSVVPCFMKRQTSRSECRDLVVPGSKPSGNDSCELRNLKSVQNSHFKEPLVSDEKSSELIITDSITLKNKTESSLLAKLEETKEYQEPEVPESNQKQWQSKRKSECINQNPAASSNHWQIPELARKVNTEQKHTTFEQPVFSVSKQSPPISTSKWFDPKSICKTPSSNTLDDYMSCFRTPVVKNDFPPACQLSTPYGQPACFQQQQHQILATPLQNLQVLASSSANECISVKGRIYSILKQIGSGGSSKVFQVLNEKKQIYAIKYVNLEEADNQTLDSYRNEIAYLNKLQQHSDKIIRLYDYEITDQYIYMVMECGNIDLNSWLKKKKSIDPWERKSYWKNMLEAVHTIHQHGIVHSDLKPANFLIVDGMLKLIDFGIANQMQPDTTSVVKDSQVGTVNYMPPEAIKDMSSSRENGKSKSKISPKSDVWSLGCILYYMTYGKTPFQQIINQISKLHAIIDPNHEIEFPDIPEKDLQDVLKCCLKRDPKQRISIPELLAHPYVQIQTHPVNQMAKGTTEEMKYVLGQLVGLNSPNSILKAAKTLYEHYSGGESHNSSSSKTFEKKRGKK
Experiment: Mps-1 Kinase Assay (TR-FRET)
Details: N-terminally GST-tagged human full length recombinant Mps-1; 10 μM ATP; 1 μM biotinylated peptide substrate; 60 min at 22° C.; read-out: MPS1 Inhibition, IC50 in M
pIC50: −log10 of the molar value.
Decision: pIC50 compared against 7; not below it gives condition met, below it gives condition not met.

* COc1ccccc1Nc1nc2ccc(-c3ccc(C(=O)NC4CC4)cc3)cn2n1 [Example 1.1] | condition not met
* COc1ccccc1Nc1nc2ccc(-c3ccc(NC(=O)CC4CC4)cc3)cn2n1 [Example 4.2] | condition met
* COc1ccccc1Nc1nc2ccc(-c3cccc(C(=O)NCc4ccccc4)c3)cn2n1 [Example 10.2] | condition met
* COc1ccccc1Nc1nc2ccc(-c3cccc(NC(=O)Cc4ccccc4)c3)cn2n1 [Example 8.1] | condition not met
* N#Cc1ccccc1Nc1nc2ccc(-c3ccc(NC(=O)Cc4ccc(C(F)(F)F)cc4)cc3)cn2n1 [Example 3.1] | condition met
* COc1ccccc1Nc1nc2ccc(-c3cccc(NS(=O)(=O)C4CC4)c3)cn2n1 [Example 8.4] | condition not met
